Tested on: PC-3 prostate
experimental protocol: NCI tumour cell line growth inhibition, 48 h
observable: TGI (µM)
Your answer should be a plain number; it is taken to be in µM.

In the examples that follow, each entry is paired with its recorded TGI.
Q: In one line, give reported TGI of the entry "Cn1c2ccccc2c2ccc3c(c21)C(=O)c1ccccc1C3=O" .
Result: 33.2

Q: In one line, give reported TGI of the entry "COc1ccc2c(c1)-c1nc(=S)n(CCCN(C)C)c3ccc([N+](=O)[O-])c(c13)N2" .
Result: 17.4

Q: In one line, give reported TGI of the entry "CC/C=C\C[C@H](F)C/C=C1/C(=O)C=C[C@@H]1C/C=C\CCCC(=O)O" .
Result: 15.7

Now consider a different compound.
Q: In one line, give reported TGI of the entry "COc1cc2cc(Oc3ccc(NC(=O)Nc4ccc(Cl)c(C(F)(F)F)c4)cc3)c(C)nc2cc1OCCN1CCOCC1" .
Result: 6

----------
Tested on: CCRF-CEM leukemia
experimental protocol: NCI tumour cell line growth inhibition, 48 h; in the data active = GI50 below about 0.43 µM; inactive = the rest
Thanks in advance; please answer with one of these: true = active, false = inactive

Q: For Cc1ccc(C(=O)N(CCCN)C(c2oc3cc(Cl)ccc3c(=O)c2Cc2ccccc2)C(C)C)cc1 (stereo not given) , what call appears in the results of this test?
Result: true

Others:
Q: For NC(=O)NS(=O)(=O)c1ccc(N2N=C(C(F)(F)F)CC2c2cc(C(F)(F)F)cc(C(F)(F)F)c2)cc1 (stereo not given) , what call appears in the results of this test?
Result: false

Q: For O=C1CCC(N2C(=O)c3ccccc3C2=O)C(=O)N1CO (stereo not given) , what call appears in the results of this test?
Result: false

----------
Test system: BT-549 breast
experimental protocol: NCI tumour cell line growth inhibition, 48 h
Items are presented alongside their recorded GI50.

Q: In one line, give reported GI50 of the entry "CCCn1c(=S)sc2c1nc(C)n1c(Nc3ccccc3)nnc21" .
Result: 2990 nM

Q: In one line, give reported GI50 of the entry "CCCCCCCCn1ccc2cc(NC(=O)Cn3cc(CN4CCCC4)nn3)ccc21" .
Result: 1650 nM

Q: In one line, give reported GI50 of the entry Cc1cc2c(cc1Cl)SC1=NN(C)S(=O)N1S2(=O)=O (stereo unspecified) .
Result: > 100000 nM

Q: In one line, give reported GI50 of the entry CCOC1Oc2ccc(C)cc2C(=O)/C1=C\Nc1ccc(C(N)=O)cc1 (stereo unspecified) .
Result: 15500 nM

Q: In one line, give reported GI50 of the entry "O=C(Nc1ccncc1)C(=O)c1cn(S(=O)(=O)c2cccc(F)c2)c2ccccc12" .
Result: 2290 nM

Now consider a different compound.
Q: In one line, give reported GI50 of the entry Cc1ccc(C(=O)N(CCCN)C(c2oc3cc(Cl)ccc3c(=O)c2Cc2ccccc2)C(C)C)cc1 (stereo unspecified) .
Result: < 10 nM

----------
Items are presented alongside their recorded TGI.
System: UO-31 renal
experimental protocol: NCI tumour cell line growth inhibition, 48 h

In the examples that follow, each entry is paired with its recorded TGI.
Q: In one line, give reported TGI of the entry Cc1cc(-c2cnn3c(NCC4CC(C)(O)C4)cc(Oc4cccnc4)nc23)ccc1C(=O)NC1CC1 (stereo not drawn) .
Result: > 100 µM

Q: In one line, give reported TGI of the entry "O=C(Cn1c2c(c3ccccc31)CCCC2)N1CCCC1" .
Result: > 100 µM

Q: In one line, give reported TGI of the entry COC1(OC)CC2OC1C1N=NN(C(=O)OC(C)(C)C)C21 (stereo not drawn) .
Result: > 100 µM

Q: In one line, give reported TGI of the entry "C=C(C[C@](O)(C(=O)/C=C/c1ccc(Cl)cc1)C(=O)OC)c1ccccc1" .
Result: 3.2 µM

Q: In one line, give reported TGI of the entry "CN(CCC(=O)O)C1=Nc2ccc(Cl)cc2C(c2ccccc2)=[N+]([O-])C1" .
Result: > 100 µM

Others:
Q: In one line, give reported TGI of the entry "CCOC(=O)c1c(NC(=O)c2cccs2)sc2c1CCC2" .
Result: > 100 µM

Q: In one line, give reported TGI of the entry CCCCCCCCCCCCN(CC(O)C(O)C(OC1OC(CO)C(O)C(O)C1O)C(O)CO)C(=O)CCCCCCCCCCC (stereo not drawn) .
Result: 45.8 µM

Q: In one line, give reported TGI of the entry "c1ccc(CCCCNCc2cc(CNCCCCc3ccccc3)cc(CNCCCCc3ccccc3)c2)cc1" .
Result: 0.949 µM

Q: In one line, give reported TGI of the entry CNC(=O)C1CCc2nnc(-c3ccccc3)n21 (stereo not drawn) .
Result: > 100 µM

Q: In one line, give reported TGI of the entry COc1ccc(/C=C2\CCC(C)C3C2=NN(c2ccccc2)C3c2ccc(OC)c(OC)c2)cc1OC (stereo not drawn) .
Result: 22.1 µM

Q: In one line, give reported TGI of the entry "CCOC(=O)/C(C#N)=C/c1[nH]c(C(=O)OCc2ccccc2)c(C)c1C" .
Result: > 100 µM

Q: In one line, give reported TGI of the entry "Cc1cc(N(CCC#N)CCC#N)ccc1/C=C1\N=C(c2cc([N+](=O)[O-])ccc2Cl)N(c2cccc(Cl)c2)C1=O" .
Result: > 100 µM

Q: In one line, give reported TGI of the entry "O=S(=O)(SC1=NCCN1)c1ccc2ccccc2c1" .
Result: > 100 µM

----------
System: HT29 colon
experimental protocol: NCI tumour cell line growth inhibition, 48 h; in the data active means GI50 below about 0.43 µM; inactive means the rest
Thanks in advance; please answer with one of these: active, inactive

Answered examples (3):
Q: For "COc1ccc2c(c1)CCCN2c1c2ccccc2nc2ccccc12" , what call appears in the results of this test?
Result: active

Q: For "CCC[CH2][Sn]1([CH2]CCC)[O]C(=O)CN=Cc2c(ccc3ccccc23)[O]1" , what call appears in the results of this test?
Result: inactive

Q: For "Nc1nc(N(Cc2ccccc2)c2ccccc2)c2cn[nH]c2n1" , what call appears in the results of this test?
Result: inactive

Others:
Q: For "CCCCCCCC[C@@H](O)CC(=O)N[C@@H](CC(N)=O)C(=O)N[C@@H](CCC(N)=O)C(=O)N[C@@H](CC(=O)c1cc(C)cc(O)c1C(=O)c1c(O)cccc1O)CC(C)C" , what call appears in the results of this test?
Result: active

Q: For "C=C(C[C@](O)(C(=O)/C=C/c1ccc(Cl)cc1)C(=O)OC)c1ccccc1" , what call appears in the results of this test?
Result: inactive

Q: For "O=C1Nc2ccccc2C1(c1ccc(O)cc1)c1ccc(O)cc1" , what call appears in the results of this test?
Result: inactive

Q: For "O=C(Nc1ccncc1)C(=O)c1cn(S(=O)(=O)c2cccc(F)c2)c2ccccc12" , what call appears in the results of this test?
Result: inactive

Q: For "CC/C=C\C[C@H](F)C/C=C1/C(=O)C=C[C@@H]1C/C=C\CCCC(=O)O" , what call appears in the results of this test?
Result: inactive

Q: For "O=c1cc(-c2ccccc2)oc2cc(OC/C(=N/O)c3ccccc3)ccc12" , what call appears in the results of this test?
Result: inactive

----------
System: HCT-116 colon
experimental protocol: NCI tumour cell line growth inhibition, 48 h
observable: TGI

Q: In one line, give reported TGI of the entry "Nc1nc(N(Cc2ccccc2)c2ccccc2)c2cn[nH]c2n1" .
Result: > 100 µM

Others:
Q: In one line, give reported TGI of the entry Nc1nc2c(nnn2C2CC(O)C(CO)O2)c(=O)[nH]1 (stereo not given) .
Result: > 100 µM

Q: In one line, give reported TGI of the entry "CC(CCC(=O)O)(c1ccc(O)cc1)c1ccc(O)cc1" .
Result: > 100 µM

Q: In one line, give reported TGI of the entry CCCCCCCC(=O)OCC/C=C/C1OC1C1OC(=O)/C=C\C=C\c2nc(oc2C)/C=C(/C)CCC2OC2C1OC(=O)NC(C)=O (stereo not given) .
Result: 0.368 µM

Q: In one line, give reported TGI of the entry "O=c1c2ccccc2[nH]c2c(Cl)cc(Cl)c(NC3CCCCC3)c12" .
Result: > 100 µM

----------
Items are presented alongside their recorded TGI.
Test system: SF-268 CNS
experimental protocol: NCI tumour cell line growth inhibition, 48 h

In the examples that follow, each entry is paired with its recorded TGI.
Q: In one line, give reported TGI of the entry "NC12CC3CC(C1)CC(C(=O)O)(C3)C2" .
Result: > 100 µM

Q: In one line, give reported TGI of the entry O=C(CC1(O)C(=O)Nc2c(Cl)ccc(Cl)c21)c1ccc(F)cc1 (stereo not given) .
Result: > 100 µM

Q: In one line, give reported TGI of the entry Nc1nc(I)nc2c1ncn2C1OC(COS(N)(=O)=O)C(O)C1O (stereo not given) .
Result: 0.018 µM

Q: In one line, give reported TGI of the entry "O=c1cc(N2CCNCC2)nc2ccccn12" .
Result: > 100 µM

Others:
Q: In one line, give reported TGI of the entry "CCC/C=C/c1cc2c(cc1O)CC[C@@H]1[C@@H]2CC[C@]2(C)[C@@H](O)CC[C@@H]12" .
Result: 42.6 µM

Q: In one line, give reported TGI of the entry "Cc1cc(S(=O)(=O)Nc2nc(N)n(-c3ccccn3)n2)c(S)cc1Cl" .
Result: > 100 µM

Q: In one line, give reported TGI of the entry OC1(c2ccc(Cl)cc2)C(N2CCCC2)c2ccccc2C2=NCCN21 (stereo not given) .
Result: > 100 µM

Q: In one line, give reported TGI of the entry "O=C(O)C(=Cc1ccc(-c2ccccc2)cc1)C(=O)O" .
Result: > 59.3 µM

Q: In one line, give reported TGI of the entry "Cc1cccc(C(C)C)c1NC(=O)/C(Cc1c([N+](=O)[O-])cccc1[N+](=O)[O-])=N/NC(=O)CC#N" .
Result: > 100 µM

Q: In one line, give reported TGI of the entry "C=C(C[C@](O)(C(=O)/C=C/c1ccc(Cl)cc1)C(=O)OC)c1ccccc1" .
Result: 8.13 µM
